# System Name: hROMK (hKir1.1) (Homo sapiens (Human), UniProt P48048)
# Sequence (P48048 whole entry): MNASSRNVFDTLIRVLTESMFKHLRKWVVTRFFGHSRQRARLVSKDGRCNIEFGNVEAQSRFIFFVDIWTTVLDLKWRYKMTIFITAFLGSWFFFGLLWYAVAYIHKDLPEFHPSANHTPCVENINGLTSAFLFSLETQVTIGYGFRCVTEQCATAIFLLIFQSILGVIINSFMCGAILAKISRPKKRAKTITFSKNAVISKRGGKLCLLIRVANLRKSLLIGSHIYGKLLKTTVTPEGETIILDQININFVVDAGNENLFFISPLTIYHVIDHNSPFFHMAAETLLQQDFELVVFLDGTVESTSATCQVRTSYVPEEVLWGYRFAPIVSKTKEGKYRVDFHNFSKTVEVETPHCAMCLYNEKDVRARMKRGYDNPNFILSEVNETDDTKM
# Experiment Description: Thallium Flux Assay (ROMK channel functional thallium flux assay, FLIPR-Tetra)
# Type: cell-based
# Applied Conditions: HEK293 cells stably expressing hROMK
# Description: Cell Culture Conditions— HEK293 cells stably expressing hROMK (hKir1.1) were grown at 37° C. in a 10% CO2 humidified incubator in complete growth media: Dulbecco's Modified Eagle Medium supplemented with non-essential amino acids, Penicillin/Streptomycin/Glutamine, G418 and FBS. At >80% confluency, aspirate the media from the flask and rinse with 10 mL Calcium/Magnesium-free PBS. […] • 1. […] At FLIPR-Tetra 384: Add stimulant (Thallium/Potassium) solution to microplate and monitor fluorescence. […]
Endpoint Name: IC50 (nM)

Study these solved cases before continuing.
Compound	IC50, nM
Cc1c([C@@H](O)CN2CCC3(CC2)C[C@@H](C)N(C2=CC(=O)OC2)C3=O)ccc2c1COC2=O	20
CC1=C(N2CCC3(CCN(CC(O)c4ccc5c(c4Cl)COC5=O)CC3)C2=O)COC1=O (single isomer, unassigned) [Example 78]	270
CC1=C(N2CCC3(CCN(C(C)(C)C(O)c4ccc5c(c4C)COC5=O)CC3)C2=O)COC1=O (single isomer, unassigned) [Example 85B]	10
CO[C@@H](CN1CCC2(CC1)CCN(C1=C(C)C(=O)OC1)C2=O)c1ccc2c(c1C)COC2=O	40

1. CC1=C(N2CCC3(CCN(CC(NC4CC4)c4ccc5c(c4C)COC5=O)CC3)C2=O)COC1=O (centres unmarked)
2. CC1=C(N2CCC3(CCN(C[C@H](O)c4ccc5c(c4C)COC5=O)CC3O)C2=O)COC1=O (some centres unmarked)
Incoming: I'm curious whether 1 or 2 has the smaller IC50 number. Which is it? // return label of chosen record
Outgoing: 1
(1: 150 nM, 2: 230 nM)

P. CC1=C(N2CCC3(CCN(C(CO)Cc4ccc5c(c4C)COC5=O)CC3)C2=O)COC1 (single isomer, unassigned) [Example 84B]
Q. CC1=C(N2CCC3(CCN(C[C@H](F)c4ccc5c(c4C)COC5=O)CC3)C2=O)COC1=O
R. COCCNC(CN1CCC2(CC1)CCN(C1=C(C)C(=O)OC1)C2=O)c1ccc2c(c1C)COC2=O (centres unmarked)
S. CC1=C(N2CCC3(CCN(CC(O)c4ccc5c(c4Cl)COC5=O)CC3)C2=O)COC1=O (single isomer, unassigned) [Example 79]
Incoming: Thanks in advance: please rank these 4 entries by IC50, highest to lowest. State the ranking by listing the labels in the requested order.
Outgoing: R, P, Q, S

a. CCO[C@@H](CN1CCC2(CC1)CCN(C1=C(C)C(=O)OC1)C2=O)c1ccc2c(c1C)COC2=O
b. CC1=C(N2CCC3(CCN(CC(O)c4ccc5c(c4F)COC5=O)CC3)C2=O)COC1=O (single isomer, unassigned) [Example 80]
Incoming: Between a and b , whose measured IC50 reads higher? Mark your answer with the label of the selected entry.
Outgoing: b
(b: 50 nM, a: 30 nM)
